These measurements were taken from patent US7723372B2.

# Target under test: interaction between p53 and MDM2 proteins (recombinant GST-tagged MDM2, biotinylated p53 peptide) (Homo sapiens, UniProt Q00987)
# Sequence (Q00987 whole entry): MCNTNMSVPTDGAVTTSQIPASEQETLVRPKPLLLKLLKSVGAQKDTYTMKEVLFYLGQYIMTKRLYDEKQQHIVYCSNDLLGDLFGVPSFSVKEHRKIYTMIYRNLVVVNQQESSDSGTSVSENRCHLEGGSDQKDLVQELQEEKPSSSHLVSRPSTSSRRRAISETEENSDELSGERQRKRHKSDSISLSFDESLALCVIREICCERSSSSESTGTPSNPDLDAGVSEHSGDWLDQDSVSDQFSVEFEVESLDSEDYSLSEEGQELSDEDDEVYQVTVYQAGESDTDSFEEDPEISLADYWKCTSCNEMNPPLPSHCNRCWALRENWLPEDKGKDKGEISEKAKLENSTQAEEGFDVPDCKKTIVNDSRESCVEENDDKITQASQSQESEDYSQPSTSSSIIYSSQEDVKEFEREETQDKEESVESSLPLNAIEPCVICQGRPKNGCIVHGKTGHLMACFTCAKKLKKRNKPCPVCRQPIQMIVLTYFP
# Protocol text: HTRF assay of inhibition of the p53-MDM2 interaction
# Type: binding
# Condition context: 0.02% BSA
Param label: returns Y when IC50 < 2 µM, returns N otherwise, including exact equality.

{"columns": ["Compound", "Group label"],
 "data": [
  ["O=C1C[C@@H](c2cccc(Cl)c2)[C@@]2(C=C1c1cc(F)ccc1O)C(=O)Nc1cc(Cl)ccc12 (racemic) [Example 17]", "Y"],
  ["Cc1ccc(F)cc1C1=C[C@@]2(C(=O)Nc3cc(Cl)ccc32)[C@H](c2cccc(Cl)c2)C[C@@H]1O (racemic) [Example 5]", "Y"],
  ["O=C1C[C@@H](c2cccc(Cl)c2)[C@@]2(C=C1c1ccc(F)cc1O)C(=O)Nc1cc(Cl)ccc12 (racemic) [Example 18]", "N"]
]}

Query string: Answer whether the compound C/C=C/C1=CC(=O)C[C@@H](c2cccc(Cl)c2)[C@]12C(=O)Nc1cc(Cl)ccc12 (racemic) [Example 10 (Compound B)] has IC50 strictly less than 2 µM
Result string: N

Query string: Answer whether the compound C=Cc1ccccc1C1=CC(=O)C[C@@H](c2cccc(Cl)c2)[C@]12C(=O)Nc1cc(Cl)ccc12 (racemic) [Example 44 (Compound A)] has IC50 strictly less than 2 µM
Result string: Y
